Species: Rattus norvegicus
procedure-details: DrugMatrix - Regimen: Daily Repeat
Type: toxicity, organism-based, Sprague-Dawley
Parameters: regimen Daily Repeat, gender Male, age 6-8 weeks
condition-description: in vivo, po, 0 mg/kg, 72 h, tissue Plasma, route oral GAVAGE, dose level Control, time 3 day, […]
quantity: ALANINE AMINOTRANSFERASE

Sample records with ALANINE AMINOTRANSFERASE:
CCn1cc(C(=O)O)c(=O)c2cc(F)c(N3CCNCC3)nc21 [ENOXACIN]: 76.83 u/L
C#C[C@]1(O)CC[C@H]2[C@@H]3CCc4cc(O)ccc4[C@H]3CC[C@@]21C [ETHINYL ESTRADIOL]: 76.83 u/L
CC(C)Cc1ccc(CC(=O)O)cc1 [IBUFENAC]: 64.67 u/L

Please examine the following record next.
// query Dear colleague, I am looking for the recorded ALANINE AMINOTRANSFERASE of the following compound: NC[C@@H]1O[C@H](O[C@H]2[C@@H](O)[C@H](O[C@@H]3[C@@H](O)[C@H](N)C[C@H](N)[C@H]3O[C@H]3O[C@H](CN)[C@@H](O)[C@H](O)[C@H]3N)O[C@@H]2CO)[C@H](N)[C@@H](O)[C@@H]1O [FRAMYCETIN]
// result 76.67 u/L

Values compiled from ChEMBL document CHEMBL3885881.
